Reference source for all entries: patent US20260242395A1

# target.of.assay: CDK2/CyclinE1 (Homo sapiens, UniProt P24941)
# assay.procedure: CDK2/CyclinE1 kinase inhibitory activity (Caliper mobility shift)
# assay.conditions: enzyme 3 nM, ATP 77 μM, 28° C. 30 min; read-out: CDK2/Cyclin E1 IC50

{"compound": "O[C@@H]1COCC[C@H]1Nc1ncc(Cl)c(-c2cc(F)c3ncc4c(c3c2)CNC2(CC2)C4)n1 [Example 21]", "target.of.assay": "CDK2/CyclinE1 (Homo sapiens, UniProt P24941)", "IC50": "100 to 1000 nM"}
{"compound": "O[C@@H]1COCC[C@H]1Nc1ncc(Cl)c(-c2cc(F)c3ncc4c(c3c2)CNCC4)n1 [Example 9]", "target.of.assay": "CDK2/CyclinE1 (Homo sapiens, UniProt P24941)", "IC50": "100 to 1000 nM"}
{"compound": "CC1(C)NCc2c(cnc3c(F)cc(-c4nc(N[C@@H]5CCOC[C@H]5O)ncc4F)cc23)C1O (single isomer, unassigned) [Example 106b]", "target.of.assay": "CDK2/CyclinE1 (Homo sapiens, UniProt P24941)", "IC50": "100 to 1000 nM"}
{"compound": "CC(C)(N)c1cnc2ccc(-c3nc(N[C@@H]4CCOC[C@H]4O)ncc3Cl)cc2c1 [Example 26]", "target.of.assay": "CDK2/CyclinE1 (Homo sapiens, UniProt P24941)", "IC50": "100 to 1000 nM"}
{"compound": "CC1Cc2cnc3c(F)cc(-c4nc(N[C@@H]5CCOC[C@H]5O)ncc4Cl)cc3c2CN1 (single isomer, unassigned) [Example 34b]", "target.of.assay": "CDK2/CyclinE1 (Homo sapiens, UniProt P24941)", "IC50": "100 to 1000 nM"}
{"compound": "[2H]c1nc2c(F)cc(-c3nc(N[C@@H]4CCOC[C@H]4O)ncc3F)cc2c(C)c1C(C)(C)O [Example 94]", "target.of.assay": "CDK2/CyclinE1 (Homo sapiens, UniProt P24941)", "IC50": "100 to 1000 nM"}
{"compound": "CC(C)(O)c1cnc2c(F)cc(-c3nc(N[C@@H]4CCOC[C@H]4O)ncc3F)cc2c1Cl [Example 22]", "target.of.assay": "CDK2/CyclinE1 (Homo sapiens, UniProt P24941)", "IC50": "100 to 1000 nM"}
{"compound": "CNC(C)c1cnc2c(F)cc(-c3nc(N[C@@H]4CCOC[C@H]4O)ncc3Cl)cc2c1 (single isomer, unassigned) [Example 32a]", "target.of.assay": "CDK2/CyclinE1 (Homo sapiens, UniProt P24941)", "IC50": "10 to 100 nM"}
{"compound": "Cc1nc2c(F)cc(-c3nc(N[C@@H]4CCOC[C@H]4O)ncc3F)cc2c(C)c1C(C)O (single isomer, unassigned) [Example 81a]", "target.of.assay": "CDK2/CyclinE1 (Homo sapiens, UniProt P24941)", "IC50": "100 to 1000 nM"}
{"compound": "Cc1c(C(C)O)cnc2c(F)cc(-c3nc(N[C@@H]4CCOC[C@H]4O)ncc3Cl)cc12 (single isomer, unassigned) [Example 88a]", "target.of.assay": "CDK2/CyclinE1 (Homo sapiens, UniProt P24941)", "IC50": "100 to 1000 nM"}
{"compound": "[2H]c1nc(N[C@@H]2CCOC[C@H]2O)nc(-c2cc(F)c3nc(C)c(C(C)(C)O)cc3c2)c1F [Example 83]", "target.of.assay": "CDK2/CyclinE1 (Homo sapiens, UniProt P24941)", "IC50": "100 to 1000 nM"}
{"compound": "[2H]C([2H])([2H])C(O)(c1cc2cc(-c3nc(N[C@@H]4CCOC[C@H]4O)ncc3Cl)cc(F)c2nc1C)C([2H])([2H])[2H] [Example 60]", "target.of.assay": "CDK2/CyclinE1 (Homo sapiens, UniProt P24941)", "IC50": "≥ 1000 nM"}
{"compound": "Cc1nc2c(F)cc(-c3nc(N[C@@H]4CCOC[C@H]4O)ncc3F)cc2c(C)c1C(C)O (single isomer, unassigned) [Example 81b]", "target.of.assay": "CDK2/CyclinE1 (Homo sapiens, UniProt P24941)", "IC50": "100 to 1000 nM"}
{"compound": "Cc1c(C(C)NC2CC2)cnc2c(F)cc(-c3nc(N[C@@H]4CCOC[C@H]4O)ncc3Cl)cc12 (single isomer, unassigned) [Example 91b]", "target.of.assay": "CDK2/CyclinE1 (Homo sapiens, UniProt P24941)", "IC50": "100 to 1000 nM"}
{"compound": "CNC(C)(C)c1cnc2c(F)cc(-c3nc(N[C@@H]4CCOC[C@H]4O)ncc3Cl)cc2c1 [Example 36]", "target.of.assay": "CDK2/CyclinE1 (Homo sapiens, UniProt P24941)", "IC50": "100 to 1000 nM"}
{"compound": "O[C@@H]1COCC[C@H]1Nc1ncc(Cl)c(-c2cc(F)c3ncc(C4(O)CC4)cc3c2)n1 [Example 29]", "target.of.assay": "CDK2/CyclinE1 (Homo sapiens, UniProt P24941)", "IC50": "100 to 1000 nM"}
{"compound": "CNC(C)c1cc2cc(-c3nc(N[C@@H]4CCOC[C@H]4O)ncc3Cl)cc(F)c2nc1C (single isomer, unassigned) [Example 45a]", "target.of.assay": "CDK2/CyclinE1 (Homo sapiens, UniProt P24941)", "IC50": "100 to 1000 nM"}
{"compound": "Cc1nc2c(F)cc(-c3nc(N[C@@H]4CCOC[C@H]4O)ncc3Cl)cc2c2c1CCN(C)C2 [Example 37]", "target.of.assay": "CDK2/CyclinE1 (Homo sapiens, UniProt P24941)", "IC50": "≥ 1000 nM"}
{"compound": "CC(C)(N)c1cnc2c(F)cc(-c3nc(N[C@@H]4CCOC[C@H]4O)ncc3Cl)cc2c1 [Example 14]", "target.of.assay": "CDK2/CyclinE1 (Homo sapiens, UniProt P24941)", "IC50": "10 to 100 nM"}
{"compound": "Cc1nc2c(F)cc(-c3nc(N[C@@H]4CCOC[C@H]4O)ncc3Cl)cc2cc1C1CCCN1 (single isomer, unassigned) [Example 57a]", "target.of.assay": "CDK2/CyclinE1 (Homo sapiens, UniProt P24941)", "IC50": "100 to 1000 nM"}
{"compound": "CC(C)(O)c1cnc2c(F)cc(-c3nc(N[C@@H]4CCOC[C@H]4O)ncc3C#N)cc2c1Cl [Example 41]", "target.of.assay": "CDK2/CyclinE1 (Homo sapiens, UniProt P24941)", "IC50": "100 to 1000 nM"}
{"compound": "CC(C)(O)c1cnc2c(F)cc(-c3nc(N[C@@H]4CCOC[C@H]4O)ncc3Cl)cc2c1 [Example 1]", "target.of.assay": "CDK2/CyclinE1 (Homo sapiens, UniProt P24941)", "IC50": "≥ 1000 nM"}
{"compound": "CC(O)c1cnc2c(F)cc(-c3nc(N[C@@H]4CCOC[C@H]4O)ncc3Cl)cc2c1Cl (single isomer, unassigned) [Example 40a]", "target.of.assay": "CDK2/CyclinE1 (Homo sapiens, UniProt P24941)", "IC50": "100 to 1000 nM"}
{"compound": "CC1(C)Cc2cnc3c(F)cc(-c4nc(N[C@@H]5CCOC[C@H]5O)ncc4F)cc3c2CN1 [Example 24]", "target.of.assay": "CDK2/CyclinE1 (Homo sapiens, UniProt P24941)", "IC50": "10 to 100 nM"}
{"compound": "CC1(C)Cc2cnc3c(F)cc(-c4nc(N[C@@H]5CCOC[C@H]5O)ncc4Cl)cc3c2CN1 [Example 30]", "target.of.assay": "CDK2/CyclinE1 (Homo sapiens, UniProt P24941)", "IC50": "100 to 1000 nM"}
